Origin of measurements: patent US20240336630A1

Assay system MAP4K1 (HPK1) (Homo sapiens, UniProt Q92918); read-out recorded as log10 IC50.
Lab note - IC50 converted to log10 from values in nM.

The cases that follow already have their log10 IC50 on record.
>>> reading("COc1ncc(C(C)(C)O)c2cc(Nc3ccnc(N4CCC[C@@H]4C)n3)ncc12")
0.08
>>> reading("C[C@@H]1c2nc(Nc3cc4c([C@@](C)(O)C(F)(F)F)cnc(OC5CC5)c4cn3)ccc2C(=O)OC1(C)C (single isomer, unassigned)")
0.65
>>> reading("CC[C@@](C)(O)c1cnc(OCC(F)(F)F)c2cnc(Nc3ccc4c(n3)[C@@H](C)C(C)(C)OC4=O)cc12 (single isomer, unassigned)")
0.57
>>> reading("C[C@@H]1c2nc(Nc3cc4c([C@@](C)(O)C5CCC5)cnc(OC5CC5)c4cn3)ccc2C(=O)OC1(C)C (single isomer, unassigned) [Compound 43]")
0.83
>>> reading("C[C@@H]1OC(=O)c2ccc(Nc3cc4c(C(C)(C)O)cnc(OC5CN(S(C)(=O)=O)C5)c4cn3)nc2[C@H]1C")
-0.70
>>> reading("COc1ccc(C(C)(C)O)c2cc(Nc3ccnc(C(C)(C)F)n3)ncc12")
1.26
>>> reading("COc1ncc(C(C)(C)O)c2cc(Nc3cnc(C#N)c(N4CCC[C@@H]4C)n3)ncc12")
0.80
>>> reading("CC1(C)CCc2nc(Nc3cc4c(C(C)(C)O)cnc(OC5CC5)c4cn3)ccc2C(=O)O1")
1.37
>>> reading("COc1ncc(C(C)(C)O)c2cc(Nc3ccnc(C(C)(C)F)n3)ncc12")
0.97
>>> reading("COc1ncc(C(C)(C)O)c2cc(Nc3cnc(C#N)c(C(C)C)n3)ncc12")
1.24

Print MAP4K1 (HPK1) (Homo sapiens, UniProt Q92918) log10 IC50 for CC[C@H](O)c1cnc(OC2CN(S(C)(=O)=O)C2)c2cnc(Nc3ccc4c(n3)[C@@H](C)[C@H](C)OC4=O)cc12 (single isomer, unassigned) .
0.40

// fetch log10 IC50 for CC[C@](C)(O)c1cnc(OC2CC2)c2cnc(Nc3ccc4c(n3)C3(CC3)C(C)(C)OC4=O)cc12 (single isomer, unassigned) ; system: MAP4K1 (HPK1) (Homo sapiens, UniProt Q92918)
Sequence (Q92918 whole entry): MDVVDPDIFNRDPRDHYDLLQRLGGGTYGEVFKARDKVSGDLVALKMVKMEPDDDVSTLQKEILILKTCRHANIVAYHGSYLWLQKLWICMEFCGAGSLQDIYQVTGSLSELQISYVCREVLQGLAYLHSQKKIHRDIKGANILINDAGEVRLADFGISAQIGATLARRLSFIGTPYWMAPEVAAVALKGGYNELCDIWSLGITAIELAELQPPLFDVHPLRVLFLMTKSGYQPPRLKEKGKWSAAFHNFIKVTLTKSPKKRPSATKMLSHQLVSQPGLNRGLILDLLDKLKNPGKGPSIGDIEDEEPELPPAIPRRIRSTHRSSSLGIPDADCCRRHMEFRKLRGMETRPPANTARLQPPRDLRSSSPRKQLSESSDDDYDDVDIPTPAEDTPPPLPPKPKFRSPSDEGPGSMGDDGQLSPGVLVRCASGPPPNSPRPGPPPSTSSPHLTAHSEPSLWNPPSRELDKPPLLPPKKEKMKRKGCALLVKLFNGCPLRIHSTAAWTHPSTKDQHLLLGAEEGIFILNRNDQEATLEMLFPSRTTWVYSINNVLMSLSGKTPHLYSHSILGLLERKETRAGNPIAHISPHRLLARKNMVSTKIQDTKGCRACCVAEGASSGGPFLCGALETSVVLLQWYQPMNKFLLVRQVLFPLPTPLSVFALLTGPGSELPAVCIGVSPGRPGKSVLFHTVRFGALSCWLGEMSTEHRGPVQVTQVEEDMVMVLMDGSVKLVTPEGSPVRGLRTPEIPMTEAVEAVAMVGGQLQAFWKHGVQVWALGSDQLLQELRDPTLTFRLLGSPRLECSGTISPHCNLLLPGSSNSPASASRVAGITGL
0.32

Enter recorded log10 IC50 with MAP4K1 (HPK1) (Homo sapiens, UniProt Q92918) for C[C@@H]1c2nc(Nc3cc4c([C@@](C)(O)C5CCC5)cnc(OC5CC5)c4cn3)ccc2C(=O)OC1(C)C (single isomer, unassigned) [Compound 44] here.
0.18
